Biological target: Carboanhydrase IX (Homo sapiens, UniProt Q16790 38-459)
Assay: cell-based or functional assay
value type: EC50 (nM) HT29
Number in nM, nothing else.

Worked cases, answers included:
[
  {
    "binder": "Example 285 (antibody, human IgG1, kappa, V domains shown, linker-toxophore on cysteine S) VH: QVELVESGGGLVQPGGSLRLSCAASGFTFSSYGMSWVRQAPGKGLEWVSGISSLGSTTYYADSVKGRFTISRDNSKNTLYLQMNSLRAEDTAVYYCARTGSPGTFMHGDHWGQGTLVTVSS VL: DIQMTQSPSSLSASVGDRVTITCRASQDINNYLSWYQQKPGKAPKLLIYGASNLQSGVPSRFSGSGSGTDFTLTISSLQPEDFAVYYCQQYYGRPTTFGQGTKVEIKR",
    "output unit": "nM",
    "EC50 (nM) HT29": 0.5
  },
  {
    "binder": "Example 283 (antibody, human IgG1, kappa, V domains shown, linker-toxophore on cysteine S) VH: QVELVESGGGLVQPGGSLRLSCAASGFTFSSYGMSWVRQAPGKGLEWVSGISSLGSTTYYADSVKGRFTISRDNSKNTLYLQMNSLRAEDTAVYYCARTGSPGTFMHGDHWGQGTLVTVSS VL: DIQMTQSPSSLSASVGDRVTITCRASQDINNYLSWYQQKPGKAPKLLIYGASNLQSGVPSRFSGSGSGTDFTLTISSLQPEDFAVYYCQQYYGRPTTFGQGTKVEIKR",
    "output unit": "nM",
    "EC50 (nM) HT29": 0.3
  }
]

// Input: Example 298 (antibody, human IgG1, kappa, V domains shown, linker-toxophore on cysteine S) VH: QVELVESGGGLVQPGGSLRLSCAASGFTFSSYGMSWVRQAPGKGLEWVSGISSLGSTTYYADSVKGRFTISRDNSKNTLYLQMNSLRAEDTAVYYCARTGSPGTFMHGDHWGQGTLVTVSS VL: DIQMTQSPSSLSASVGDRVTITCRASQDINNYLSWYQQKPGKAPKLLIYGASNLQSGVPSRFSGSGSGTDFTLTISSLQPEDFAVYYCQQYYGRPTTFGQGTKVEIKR . Output its EC50 (nM) HT29 only.
2.5
